Tested on: BB65-RCC;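 also: growth inhibition of the cell line, measured with a cell viability assay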
Assay protocol: cells
Format: functional, cell-based
Measurement context: Homo sapiens
Description: SANGER: Inhibition of human BB65-RCC cell growth in a cell viability assay.
# IC50 per entry
Endpoint label: IC50 (nM)

Fc1cc(-c2cc[nH]/c(=N/c3ccc(-n4cnc(N5CCOCC5)n4)cc3)n2)cc(N2CCOCC2)c1: 924
CC(C)=CC[C@@H](O)C1=CC(=O)c2c(O)ccc(O)c2C1=O [SHIKONIN]: 695
C/C=C(/C)C(=O)O[C@H]1C(C)=C2[C@H]([C@@H]1OC(=O)CCCCCCC)[C@@](C)(OC(C)=O)C[C@H](OC(=O)CCC)[C@@]1(O)[C@H]2OC(=O)[C@@]1(C)O [THAPSIGARGIN]: 5.08

----------
Tested on: DG-75;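 also: growth inhibition of DG-75 cells, read out with a cell viability assay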
Assay protocol: cells
Assay type: functional, cell-based
Measurement context: Homo sapiens
Description: SANGER: Inhibition of human DG-75 cell growth in a cell viability assay.
Reported IC50 by item:
Endpoint label: IC50

COc1cc(C)c(Sc2cnc(NC(=O)c3ccc(CNC(C)C(C)(C)C)cc3)s2)cc1C(=O)N1CCN(C(C)=O)CC1 (configuration not stated): > 10.2 µM
O=c1[nH]c2ccccc2n1C1CCN(Cc2ccc(-c3nc4cc5[nH]cnc5cc4nc3-c3ccccc3)cc2)CC1: > 2.56 µM
CO[C@@]12[C@H](COC(N)=O)C3=C(C(=O)C(C)=C(N)C3=O)N1C[C@@H]1N[C@@H]12: 6.25 µM
CCNC(=O)c1noc(-c2cc(C(C)C)c(O)cc2O)c1-c1ccc(CN2CCOCC2)cc1: > 0.256 µM
Cc1ccc(NC(=O)c2cccc(C(C)(C)C#N)c2)cc1Nc1ccc2ncn(C)c(=O)c2c1: > 4 µM
N#C/C(=C1/Nc2ccccc2S1)c1ccnc(NCCc2cccnc2)n1: > 8 µM
CCNc1cc(N[C@H]2CC[C@@H](O)CC2)nc(Nc2ccc3c(ccn3Cc3ccccc3)c2)n1: > 5.12 µM

----------
System: DOK;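 also: cell viability assay read-out, values reflect inhibition of cell growth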
Assay protocol: cells
Assay type: functional, cell-based
Measurement context: Homo sapiens
Description: SANGER: Inhibition of human DOK cell growth in a cell viability assay.
Endpoint label: IC50 (µM)

CO[C@@]12[C@H](COC(N)=O)C3=C(C(=O)C(C)=C(N)C3=O)N1C[C@@H]1N[C@@H]12: 5.16
NC(=O)c1ncn([C@@H]2O[C@H](COP(=O)(O)O)[C@@H](O)[C@H]2O)c1N: 657

----------
Test system: NCI-H345
Assay protocol: cells
Assay type: functional, cell-based
Measurement context: Homo sapiens
Description: SANGER: Inhibition of human NCI-H345 cell growth in a cell viability assay.
pIC50: −log10 of the molar value.
Below, each of the compounds is paired with its reported pIC50 value.
Endpoint label: pIC50

CCNC(=O)c1noc(-c2cc(C(C)C)c(O)cc2O)c1-c1ccc(CN2CCOCC2)cc1: < 6.59
C/C(O)=C(\C#N)C(=O)Nc1cc(Br)ccc1Br: < 4.80
CCNc1cc(N[C@H]2CC[C@@H](O)CC2)nc(Nc2ccc3c(ccn3Cc3ccccc3)c2)n1: < 5.29
Cc1ccc(NC(=O)c2cccc(C(C)(C)C#N)c2)cc1Nc1ccc2ncn(C)c(=O)c2c1: < 5.40
Cc1n[nH]c2ccc(-c3cncc(OC[C@@H](N)Cc4c[nH]c5ccccc45)c3)cc12: 6.12
CO[C@@]12[C@H](COC(N)=O)C3=C(C(=O)C(C)=C(N)C3=O)N1C[C@@H]1N[C@@H]12: 5.32

----------
System: DoTc2-4510
Assay protocol: cells
Type: functional, cell-based
Measurement context: Homo sapiens
As shown below, each of these compounds has a reported IC50 value.
Endpoint label: IC50

CC[C@]1(O)C[C@@H]2CN(CCc3c([nH]c4ccccc34)[C@@](C(=O)OC)(c3cc4c(cc3OC)N(C)[C@H]3[C@@](O)(C(=O)OC)[C@H](OC(C)=O)[C@]5(CC)C=CCN6CC[C@]43[C@@H]65)C2)C1 [VINBLASTINE]: 16.5 nM
O=c1cc(N2CCOCC2)oc2c(-c3cccc4c3sc3ccccc34)cccc12: > 2000 nM
Cn1cc(/C=C2\C(=O)Nc3cccnc32)c2ccccc21: > 2000 nM
O=c1[nH]c2ccccc2n1C1CCN(Cc2ccc(-c3nc4cc5[nH]cnc5cc4nc3-c3ccccc3)cc2)CC1: > 2560 nM
C/C=C(/C)C(=O)O[C@H]1C(C)=C2[C@H]([C@@H]1OC(=O)CCCCCCC)[C@@](C)(OC(C)=O)C[C@H](OC(=O)CCC)[C@@]1(O)[C@H]2OC(=O)[C@@]1(C)O [THAPSIGARGIN]: 12.4 nM
CC(=O)c1c(C)c2cnc(Nc3ccc(N4CCNCC4)cn3)nc2n(C2CCCC2)c1=O [PALBOCICLIB]: > 4000 nM

----------
Tested on: FaDu;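 also: cell viability readout of growth inhibition in FaDu cells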
Assay protocol: cells
Format: functional, cell-based
Measurement context: Homo sapiens
Description: SANGER: Inhibition of human FADU cell growth in a cell viability assay.
Overview of reported IC50 across a group of molecules:
Endpoint label: IC50 (µM)

CO[C@@]12[C@H](COC(N)=O)C3=C(C(=O)C(C)=C(N)C3=O)N1C[C@@H]1N[C@@H]12: 0.128
C/C=C(/C)C(=O)O[C@H]1C(C)=C2[C@H]([C@@H]1OC(=O)CCCCCCC)[C@@](C)(OC(C)=O)C[C@H](OC(=O)CCC)[C@@]1(O)[C@H]2OC(=O)[C@@]1(C)O: 0.169
NC(=O)c1ncn([C@@H]2O[C@H](COP(=O)(O)O)[C@@H](O)[C@H]2O)c1N: 1060
CC[C@@]1(O)C(=O)OCc2c1cc1n(c2=O)Cc2cc3ccccc3nc2-1: 0.000539
CCNC(=O)c1noc(-c2cc(C(C)C)c(O)cc2O)c1-c1ccc(CN2CCOCC2)cc1: 0.0674

----------
Item-by-item account of pIC50
System: RH-1
Assay protocol: cells
Format: functional, cell-based
Measurement context: Homo sapiens
Description: SANGER: Inhibition of human RH-1 cell growth in a cell viability assay.
pIC50: −log10 of the molar value.
Endpoint label: pIC50

CCNC(=O)c1noc(-c2cc(C(C)C)c(O)cc2O)c1-c1ccc(CN2CCOCC2)cc1 [LUMINESPIB]: 7.21
N#C/C(=C1/Nc2ccccc2S1)c1ccnc(NCCc2cccnc2)n1: < 5.10
O=c1[nH]c2ccccc2n1C1CCN(Cc2ccc(-c3nc4cc5[nH]cnc5cc4nc3-c3ccccc3)cc2)CC1: < 5.59
C/C=C(/C)C(=O)O[C@H]1C(C)=C2[C@H]([C@@H]1OC(=O)CCCCCCC)[C@@](C)(OC(C)=O)C[C@H](OC(=O)CCC)[C@@]1(O)[C@H]2OC(=O)[C@@]1(C)O [THAPSIGARGIN]: 7.36
COc1cc(C)c(Sc2cnc(NC(=O)c3ccc(CNC(C)C(C)(C)C)cc3)s2)cc1C(=O)N1CCN(C(C)=O)CC1 (centres undefined): < 4.99
COc1cc(Nc2c(C#N)cnc3cc(OCCCN4CCN(C)CC4)c(OC)cc23)c(Cl)cc1Cl [BOSUTINIB]: < 5.70
CC(=O)c1c(C)c2cnc(Nc3ccc(N4CCNCC4)cn3)nc2n(C2CCCC2)c1=O [PALBOCICLIB]: < 5.40
CCCS(=O)(=O)Nc1ccc(F)c(C(=O)c2c[nH]c3ncc(Cl)cc23)c1F [PLX-4720]: < 5.00
O=c1cc(N2CCOCC2)oc2c(-c3cccc4c3sc3ccccc34)cccc12: < 5.70

----------
Test system: BCPAP;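 also: growth inhibition of BCPAP cells, read out in a cell viability assay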
Assay protocol: cells
Type: functional, cell-based
Measurement context: Homo sapiens
Description: SANGER: Inhibition of human BCPAP cell growth in a cell viability assay.
Entries and their IC50
Endpoint label: IC50 (nM)

CC[C@]1(O)C[C@@H]2CN(CCc3c([nH]c4ccccc34)[C@@](C(=O)OC)(c3cc4c(cc3OC)N(C)[C@H]3[C@@](O)(C(=O)OC)[C@H](OC(C)=O)[C@]5(CC)C=CCN6CC[C@]43[C@@H]65)C2)C1 [VINBLASTINE]: 2.33
C[C@]12O[C@H](C[C@]1(O)CO)n1c3ccccc3c3c4c(c5c6ccccc6n2c5c31)CNC4=O [LESTAURTINIB]: 970

----------
Test system: RVH-421
Assay protocol: cells
Assay type: functional, cell-based
Measurement context: Homo sapiens
Description: SANGER: Inhibition of human RVH-421 cell growth in a cell viability assay.
pIC50: −log10 of the molar value.
Endpoint label: pIC50

Cn1c(=O)n(-c2ccc(C(C)(C)C#N)cc2)c2c3cc(-c4cnc5ccccc5c4)ccc3ncc21: 7.27
C/C=C(/C)C(=O)O[C@H]1C(C)=C2[C@H]([C@@H]1OC(=O)CCCCCCC)[C@@](C)(OC(C)=O)C[C@H](OC(=O)CCC)[C@@]1(O)[C@H]2OC(=O)[C@@]1(C)O: 8.44
Fc1cc(-c2cc[nH]/c(=N/c3ccc(-n4cnc(N5CCOCC5)n4)cc3)n2)cc(N2CCOCC2)c1: 6.38
CC[C@@]1(O)C(=O)OCc2c1cc1n(c2=O)Cc2cc3ccccc3nc2-1: 7.15

----------
Measured IC50, listed per entry.
System: MG-63
Assay protocol: cells
Format: functional, cell-based
Measurement context: Homo sapiens
Description: SANGER: Inhibition of human MG-63 cell growth in a cell viability assay.
Endpoint label: IC50 (nM)

Cn1c(=O)n(-c2ccc(C(C)(C)C#N)cc2)c2c3cc(-c4cnc5ccccc5c4)ccc3ncc21: 23.4
C[C@]12O[C@H](C[C@]1(O)CO)n1c3ccccc3c3c4c(c5c6ccccc6n2c5c31)CNC4=O: 445
CC[C@@]1(O)C(=O)OCc2c1cc1n(c2=O)Cc2cc3ccccc3nc2-1: 7.65

Attribution: ChEMBL document CHEMBL1201861
